# Test system: wheat germ agglutinin (Triticum aestivum), Alexa647-labelled
# measurement protocol: wheat germ agglutinin binders on compound microarrays, profiling panel, artefact control for SMM control-protein annotation, biochemical, small-molecule microarray, 635/667 nm fluorescence (AID 1140);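 note: score merges 667 nm feature emission with signal to noise over triplicate slides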
# condition: WGA-A647 binding, 635 nm fluorescence, higher = more signal
observable: composite z-score
Give bare numbers.

Recorded composite z-score, per entry:
molecule | composite z-score
O=C1OCC=C[C@H]2OC34C=CCN(Cn5nnc6ccccc65)C(=O)[C@H]3N(CCO)C(=O)[C@@H]4[C@@H]12 (some centres undefined) | -0.944
COCCCNC(=O)[C@@]1(Cc2ccccc2I)c2ccccc2C(=O)N(C2CCCCC2)[C@H]1c1ccc(CO)cc1 | 0.772
C=C(C(=O)CC[C@@H](OC(=O)c1cccnc1)c1cccc(OCCO)c1)C(C)C | 0.386

Given C[C@]12C(=O)N(CCO)[C@@H]3C(=O)N(c4ccc(Cl)cc4)CC=CC31O[C@@H]1/C=C\CCCOC(=O)C12 (some centres undefined) , state its recorded composite z-score.
-0.839
